pIC50: −log10 of the molar value.
Below are compounds with their pIC50 as measured on mTORC1 (Homo sapiens, UniProt P42345).

Request body: readout pIC50, system mTORC1 (Homo sapiens, UniProt P42345), query `Cc1nc(CN(C)C)nc(N2CCOc3ccc(-c4cnc5sc(N)nc5c4)cc3C2)c1CCCF` . Return the value. ≥ 7.00

Continue with `Cc1nc(CN(C)C)nc(N2CCOc3ccc(-c4cnc5sc(N)nc5c4)cc3C2)c1Cl` 6.30 to 7.00

Continue with `CCOC(=O)c1cnc(N)nc1N1CCOc2ccc(-c3cnc4sc(N)nc4c3)cc2C1` 6.30 to 7.00

Continue with `Cc1nc(N)nc(N2CCOc3ccc(-c4cnc5sc(N)nc5c4)cc3C2)c1CCC#N` 6.30 to 7.00

Continue with `CC(C)(C)c1cnc(N)nc1N1CCOc2ccc(-c3cnc4sc(N)nc4c3)cc2C1` 5.60 to 6.30

Continue with `Cc1nc(N)nc(N2CCOc3ccc(-c4cnc5sc(N)nc5c4)cc3C2)c1C=O` 6.30 to 7.00

Continue with `Cc1nc(CN(C)C)nc(N2CCOc3ccc(-c4cnc5sc(N)nc5c4)cc3C2)c1CC1CC1` ≥ 7.00

Continue with `CC1=Cc2nc(N)nc(N3CCOc4ccc(-c5cnc6sc(N)nc6c5)cc4C3)c2CC1(C)C` ≥ 7.00

Continue with `COCCc1c(C)nc(CN(C)C)nc1N1CCOc2ccc(-c3cnc4sc(N)nc4c3)cc2C1` 6.30 to 7.00

Continue with `C=Cc1c(Cl)nc(N)nc1N1CCOc2ccc(-c3cnc4sc(N)nc4c3)cc2C1` ≥ 7.00

Continue with `Nc1cc(Cl)nc(N2CCOc3ccc(-c4cnc5sc(N)nc5c4)cc3C2)n1` 6.30 to 7.00
